- System: T1, rat PTH1R on UMR106 cells (rat, UniProt P25961 27-591)
- T1 sequence (looked up): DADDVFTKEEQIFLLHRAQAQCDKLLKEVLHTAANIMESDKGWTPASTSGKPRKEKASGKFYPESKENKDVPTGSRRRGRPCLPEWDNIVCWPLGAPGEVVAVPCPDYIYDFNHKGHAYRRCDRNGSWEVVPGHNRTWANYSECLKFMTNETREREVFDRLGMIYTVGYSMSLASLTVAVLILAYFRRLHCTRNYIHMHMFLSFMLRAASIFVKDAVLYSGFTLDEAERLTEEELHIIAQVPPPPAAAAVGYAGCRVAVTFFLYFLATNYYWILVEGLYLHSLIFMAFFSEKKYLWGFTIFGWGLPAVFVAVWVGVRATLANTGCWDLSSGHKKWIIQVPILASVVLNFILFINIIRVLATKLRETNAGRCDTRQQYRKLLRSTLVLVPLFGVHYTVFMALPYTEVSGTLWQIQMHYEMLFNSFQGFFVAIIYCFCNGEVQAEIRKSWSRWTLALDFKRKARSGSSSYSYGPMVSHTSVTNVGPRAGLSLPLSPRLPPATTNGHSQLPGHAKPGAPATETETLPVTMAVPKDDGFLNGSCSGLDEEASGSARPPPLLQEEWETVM
- Experiment description: cell-based or functional assay
Experimental readout: % inhibition of cAMP accumulation at 1 µM PTH(1-34), 267 nM IgG (%)
Write the number in % without appending the unit.

Answered cases to consult:
% inhibition of cAMP accumulation at 1 µM PTH(1-34), 267 nM IgG for XPA.85.288 (antibody, V domains shown, also called Ab288) VH: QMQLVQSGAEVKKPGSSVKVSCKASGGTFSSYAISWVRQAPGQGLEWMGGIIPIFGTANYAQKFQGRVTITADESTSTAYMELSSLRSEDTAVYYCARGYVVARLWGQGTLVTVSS VL: DVVMTQTPLSLSVTPGQPASISCKSSQSLLHIDGKTYLYWYLQKSGQSPQLLIYEVSNRFSGVPDTFSGSGSGTDFTLKISRVEAEDVGVYYCMQSLHFPITFGQGTRLEIK is 73

% inhibition of cAMP accumulation at 1 µM PTH(1-34), 267 nM IgG for XPA.85.342 (antibody, V domains shown, Light-chain-shuffled variant of XPA.85.012) VH: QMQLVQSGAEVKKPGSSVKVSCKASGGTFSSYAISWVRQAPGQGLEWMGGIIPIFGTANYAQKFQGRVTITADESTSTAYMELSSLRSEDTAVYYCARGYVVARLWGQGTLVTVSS VL: ETTLTQSPTFMSASVGDRVTITCQASQDINNFLNWYQQKPGKAPKFLIYDASNLEKGVPSRFSGRGSGTEFTLTISSLQPEDIATYYCQQYRDFPLTFGQGTRLEIK is 6

% inhibition of cAMP accumulation at 1 µM PTH(1-34), 267 nM IgG for XPA.85.329 (antibody, V domains shown, IgG; also called Ab329; XPA.329) VH: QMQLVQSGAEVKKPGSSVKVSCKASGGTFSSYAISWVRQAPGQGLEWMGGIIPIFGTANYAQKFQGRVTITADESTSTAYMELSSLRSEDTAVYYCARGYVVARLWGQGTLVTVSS VL: DIVMTQTPLSLSVTPGQPASISCKSSQSLLHIDGLTYLYWYLQKPGQPPQLLIYEVSHRFSGVSDKFSGSGSGTDFTLTISRVEAEDVGVYYCMQSLHLPITFGQGTRLEIK is 50

***
% inhibition of cAMP accumulation at 1 µM PTH(1-34), 267 nM IgG for XPA.85.331 (antibody, V domains shown, Light-chain-shuffled variant of XPA.85.012) VH: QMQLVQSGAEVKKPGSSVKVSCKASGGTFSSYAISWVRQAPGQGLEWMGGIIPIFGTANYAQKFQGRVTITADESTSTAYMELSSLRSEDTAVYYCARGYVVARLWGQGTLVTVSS VL: DVVMTQSPLSLPVTPGEPASISCRSSQSLLHIDGFNYLQWYLQKPGQSPQLLVHLGSFRASGVPDRFSGSGSGTDFTLEISRVEAEDVGLYYCMQGLQTPPTFGPGTKVEIK is 42

% inhibition of cAMP accumulation at 1 µM PTH(1-34), 267 nM IgG for XPA.85.330 (antibody, V domains shown, IgG; also called Ab330) VH: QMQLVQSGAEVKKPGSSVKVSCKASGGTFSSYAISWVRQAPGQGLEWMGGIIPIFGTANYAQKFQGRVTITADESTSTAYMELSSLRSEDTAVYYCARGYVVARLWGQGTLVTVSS VL: DIVMTQTPLSLSVTPGQPASISCKSSQSLLHIDGNTYLYWYLQRPGQPPQLLIYEISNRFSGVPDRFSGSGSGTDFTLKISRVEAEDVGVYYCMQSLHFPITFGQGTRLEIK is 55

% inhibition of cAMP accumulation at 1 µM PTH(1-34), 267 nM IgG for XPA.85.346 (antibody, V domains shown, Light-chain-shuffled variant of XPA.85.012) VH: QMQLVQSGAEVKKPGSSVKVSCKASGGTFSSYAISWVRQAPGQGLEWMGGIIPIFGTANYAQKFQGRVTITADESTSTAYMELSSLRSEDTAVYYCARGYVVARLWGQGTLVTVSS VL: DIVMTQTPLSLSVTPGQPASITCKSSQSLLHIDGKTYLYWFLQKPGQPPQLLIYEVSNRFSGVPDRFSGSGSGTDFTLKISRVEAEDVGLYYCMQSLHLPITFGQGTRLEIK is 40

Provenance of the data: patent US20200317817A1
